Test system: H460
assayOverview: Anticancer screening, MTT assay, 72 h
Type: cell-based
details: Homo sapiens, NCI-H460, 72 h
Where a name gives a salt, the structure may show the parent alone.
measuredMetric: GI50 (µM)

// solved cases for GI50 follow
COc1cc(NC(C)CCCN)c2ncccc2c1 (centres unmarked) [PQ, primaquine diphosphate, reference compound] :: 17
C=C(CC(=O)OC)C(=O)NCCCCNc1cc(C(F)(F)F)nc2c(C(F)(F)F)cccc12 [Compound 13] :: 3.5
C=C(CC(=O)OC)C(=O)Nc1cccc(C(F)(F)F)c1 [Compound 3] :: 9

(a) CCN(CC)CCCC(C)Nc1ccnc2cc(Cl)ccc12 (centres unmarked) [CQ, chloroquine diphosphate, reference compound]
(b) COc1ccc2[nH]c(CCNC(=O)C=C(C)C(=O)NCCc3c[nH]c4ccc(OC)cc34)cc2c1 [Compound 14]
(c) C=C(CC(=O)OC)C(=O)NCCCC(C)Nc1cc(OC)cc2cccnc12 (centres unmarked) [Compound 11]
(d) OC(c1cc(C(F)(F)F)nc2c(C(F)(F)F)cccc12)C1CCCCN1 (centres unmarked) [MQ, mefloquine hydrochloride, reference compound]
Arrange the 4 compounds by rising GI50, starting with the smallest. Would you mind listing the labels in the order asked for?
d, c, a, b

(A) C=C(CC(=O)OC)C(=O)Nc1ccc(C(F)(F)F)cc1 [Compound 4]
(B) C=C(CC(=O)OC)C(=O)Nc1cccnc1 [Compound 6]
(C) C=C(CC(=O)OC)C(=O)NCCCCNc1ccnc2cc(Cl)ccc12 [Compound 12]
Highest GI50 first, then in falling order down to the smallest. Would you mind listing the labels in the order asked for?
B, A, C
(B: 18 µM, A: 11 µM, C: 2 µM)

(1) C=C(CC(=O)OC)C(=O)NCCc1c[nH]c2ccc(OC)cc12 [Compound 10]
(2) CC(=CC(=O)NCCCCNc1cc(C(F)(F)F)nc2c(C(F)(F)F)cccc12)C(=O)NCCCCNc1cc(C(F)(F)F)nc2c(C(F)(F)F)cccc12 [Compound 15]
For 1 and 2 , which recorded GI50 is lower? Identify your selection by its label.
2
(2: 3 µM, 1: 11 µM)

###

Lab note: GI50 readings collected with MCF-7 for the following molecules.
Counter-ions that a name gives are not always drawn.
measuredMetric: GI50 (µM)

CCN(CC)CCCC(C)Nc1ccnc2cc(Cl)ccc12 (stereo not shown) [CQ, chloroquine diphosphate, reference compound] :: 6

(A) OC(c1cc(C(F)(F)F)nc2c(C(F)(F)F)cccc12)C1CCCCN1 (stereo not shown) [MQ, mefloquine hydrochloride, reference compound]
(B) C=C(CC(=O)OC)C(=O)NCc1cccnc1
(C) C=C(CC(=O)OC)C(=O)Nc1cccc(C(F)(F)F)c1
Arrange the 3 molecules by rising GI50, starting with the smallest. Would you mind listing the labels in the order asked for?
A, C, B
(A: 1.3 µM, C: 2 µM, B: 6 µM)

###

System: LN-229
assayOverview: Anticancer screening, MTS cell proliferation assay, 72 h
Format: cell-based
details: Homo sapiens, LN-229, 72 h
measuredMetric: GI50 (µM)

// solved cases for GI50 follow
CCN(CC)CCCC(C)Nc1ccnc2cc(Cl)ccc12 (stereo not shown) [CQ, chloroquine diphosphate, reference compound] :: 22
C=C(CC(=O)OC)C(=O)NCc1cccnc1 [Compound 8] :: 8.4

(A) C=C(CC(=O)OC)C(=O)NCCc1cccnc1 [Compound 9]
(B) CC(=CC(=O)NCCCCNc1cc(C(F)(F)F)nc2c(C(F)(F)F)cccc12)C(=O)NCCCCNc1cc(C(F)(F)F)nc2c(C(F)(F)F)cccc12 [Compound 15]
Given the listed records, identify the one among A and B with higher GI50. Identify your selection by its label.
A
(A: 6.2 µM, B: 2.4 µM)

###

System: HL-60
assayOverview: Anticancer screening, MTS cell proliferation assay, 72 h
Format: cell-based
details: Homo sapiens, HL-60, 72 h
measuredMetric: GI50 (µM)

C=C(CC(=O)OC)C(=O)NCCCCNc1cc(C(F)(F)F)nc2c(C(F)(F)F)cccc12 :: 10.3
C=C(CC(=O)OC)C(=O)NCc1cccnc1 :: 11
C=C(CC(=O)OC)C(=O)Nc1ccc(F)cc1 :: 9.3

(A) C=C(CC(=O)OC)C(=O)Nc1cccc(C(F)(F)F)c1
(B) C=C(CC(=O)OC)C(=O)Nc1cc(OC)cc2cccnc12
For A and B , which recorded GI50 is lower? Identify your selection by its label.
A

###

Tested on: LN-229
assayOverview: Anticancer screening, MTS cell proliferation assay, 72 h
Format: cell-based
details: Homo sapiens, LN-229, 72 h
measuredMetric: GI50 (µM)

// solved cases for GI50 follow
C=C(CC(=O)OC)C(=O)NCCCC(C)Nc1cc(OC)cc2cccnc12 (stereo not drawn) :: 4.3
C=C(CC(=O)OC)C(=O)NCCCCNc1cc(C(F)(F)F)nc2c(C(F)(F)F)cccc12 :: 10.8
COc1cc(NC(C)CCCN)c2ncccc2c1 (stereo not drawn) [PQ, primaquine diphosphate, reference compound] :: 9.9
C=C(CC(=O)OC)C(=O)Nc1cccnc1 :: 10.2
C=C(CC(=O)OC)C(=O)Nc1ccc(C(F)(F)F)cc1 :: 7.7
C=C(CC(=O)OC)C(=O)Nc1cc(OC)cc2cccnc12 :: 6.2
C=C(CC(=O)OC)C(=O)Nc1cncc(F)c1 :: 8.1

(P) C=C(CC(=O)OC)C(=O)NCCc1c[nH]c2ccc(OC)cc12
(Q) C=C(CC(=O)OC)C(=O)NCCCCNc1ccnc2cc(Cl)ccc12
For P and Q , which recorded GI50 is lower? Identify your selection by its label.
Q
(Q: 1.1 µM, P: 6.5 µM)

###

System: HL-60
assayOverview: Anticancer screening, MTS cell proliferation assay, 72 h
Format: cell-based
details: Homo sapiens, HL-60, 72 h
Where a name gives a salt, the structure may show the parent alone.
measuredMetric: GI50 (µM)

// solved cases for GI50 follow
C=C(CC(=O)OC)C(=O)NCCCCNc1ccnc2cc(Cl)ccc12 [Compound 12] :: 1.9
C=C(CC(=O)OC)C(=O)NCCCC(C)Nc1cc(OC)cc2cccnc12 (centres unmarked) [Compound 11] :: 11.1
OC(c1cc(C(F)(F)F)nc2c(C(F)(F)F)cccc12)C1CCCCN1 (centres unmarked) [MQ, mefloquine hydrochloride, reference compound] :: 5.9

(1) COc1cc(NC(C)CCCN)c2ncccc2c1 (centres unmarked) [PQ, primaquine diphosphate, reference compound]
(2) CCN(CC)CCCC(C)Nc1ccnc2cc(Cl)ccc12 (centres unmarked) [CQ, chloroquine diphosphate, reference compound]
Given the listed records, identify the one among 1 and 2 with higher GI50. Identify your selection by its label.
2
(2: 13 µM, 1: 7 µM)

(A) CC(=CC(=O)NCCCCNc1cc(C(F)(F)F)nc2c(C(F)(F)F)cccc12)C(=O)NCCCCNc1cc(C(F)(F)F)nc2c(C(F)(F)F)cccc12 [Compound 15]
(B) C=C(CC(=O)OC)C(=O)Nc1ccc(C(F)(F)F)cc1 [Compound 4]
For A and B , which recorded GI50 is lower? Identify your selection by its label.
A

###

Tested on: MCF-7
assayOverview: Anticancer screening, MTT assay, 72 h
Assay type: cell-based
details: Homo sapiens, MCF7, 72 h
measuredMetric: GI50 (nM)

// solved cases for GI50 follow
C=C(CC(=O)OC)C(=O)Nc1cccnc1 [Compound 6] :: 3000
C=C(CC(=O)OC)C(=O)NCCc1c[nH]c2ccc(OC)cc12 [Compound 10] :: 2000

(A) C=C(CC(=O)OC)C(=O)NCCCCNc1cc(C(F)(F)F)nc2c(C(F)(F)F)cccc12 [Compound 13]
(B) C=C(CC(=O)OC)C(=O)Nc1cncc(F)c1 [Compound 7]
For A and B , which recorded GI50 is lower? Identify your selection by its label.
A

###

System: Capan-1
assayOverview: Anticancer screening, MTS cell proliferation assay, 72 h
Format: cell-based
details: Homo sapiens, CAPAN-1, 72 h
Counter-ions that a name gives are not always drawn.
measuredMetric: GI50 (µM)

// solved cases for GI50 follow
C=C(CC(=O)OC)C(=O)NCc1cccnc1 [Compound 8] :: 9.1
C=C(CC(=O)OC)C(=O)Nc1cc(OC)cc2cccnc12 [Compound 5] :: 6.3
C=C(CC(=O)OC)C(=O)Nc1cccnc1 [Compound 6] :: 8.9
C=C(CC(=O)OC)C(=O)NCCc1cccnc1 [Compound 9] :: 5.9
OC(c1cc(C(F)(F)F)nc2c(C(F)(F)F)cccc12)C1CCCCN1 (stereo not shown) [MQ, mefloquine hydrochloride, reference compound] :: 2
CCN(CC)CCCC(C)Nc1ccnc2cc(Cl)ccc12 (stereo not shown) [CQ, chloroquine diphosphate, reference compound] :: 14.9
C=C(CC(=O)OC)C(=O)Nc1ccc(C(F)(F)F)cc1 [Compound 4] :: 5.3
COc1cc(NC(C)CCCN)c2ncccc2c1 (stereo not shown) [PQ, primaquine diphosphate, reference compound] :: 9

(P) C=C(CC(=O)OC)C(=O)NCCc1c[nH]c2ccc(OC)cc12 [Compound 10]
(Q) C=C(CC(=O)OC)C(=O)NCCCC(C)Nc1cc(OC)cc2cccnc12 (stereo not shown) [Compound 11]
(R) C=C(CC(=O)OC)C(=O)NCCCCNc1cc(C(F)(F)F)nc2c(C(F)(F)F)cccc12 [Compound 13]
(S) C=C(CC(=O)OC)C(=O)NCCCCNc1ccnc2cc(Cl)ccc12 [Compound 12]
Highest GI50 first, then in falling order down to the smallest. Would you mind listing the labels in the order asked for?
R, Q, P, S
